Molecular target: farnesyl protein transferase (FPT) (Rattus norvegicus, UniProt Q02293+Q04631)
Construct: were partially purified from rat brain by ammonium sulfate fractionation followed by Q-Sepharose; from tissue; host or cells: rat brain
Test: In vitro enzyme assay: inhibition of farnesyl protein transferase
Format: biochemical
value_kind: IC50
Report field: quantity (unit follows the number).

Reference set (2 entries):
- compound: "O=C(Oc1cccnc1)N1CCN(C2c3ccc(Cl)cc3CCc3cccnc32)CC1 (stereo not drawn)"
  IC50: "0.5 µM"
- compound: "O=C(Oc1ccccc1)N1CCN(C2c3ccc(Cl)cc3CCc3cccnc32)CC1 (stereo not drawn)"
  IC50: "0.8 µM"

Give its IC50 value. Item: O=C(Oc1cccnc1)N1CCN([C@@H]2c3ccc(Cl)cc3CCc3cccnc32)CC1
1.28 µM

Give its IC50 value. Item: O=C(Oc1ccc[n+]([O-])c1)N1CCN(C2c3ccc(Cl)cc3CCc3cc(Br)cnc32)CC1 (stereo not drawn)
0.28 µM

Give its IC50 value. Item: O=C(Oc1ccccc1)N1CCN(C2c3ccc(Cl)cc3C=Cc3cccnc32)CC1 (stereo not drawn)
0.88 µM

Give its IC50 value. Item: O=C(Oc1cccnc1)N1CCN([C@H]2c3ccc(Cl)cc3CCc3cccnc32)CC1
0.82 µM

###

Molecular target: farnesyl protein transferase (FPT) (Rattus norvegicus, UniProt Q02293+Q04631)
Construct: were partially purified from rat brain by ammonium sulfate fractionation followed by Q-Sepharose; from tissue; host or cells: rat brain
Assay: In vitro enzyme assay: inhibition of farnesyl protein transferase
Format: biochemical
Conditions: Ras-CVLS farnesylation, partially purified rat brain FPT; read-out: FPT IC50
Quick reference: pIC50 of the listed items.
Just so you know, pIC50 here is -log10 of the concentration in molar units; reply with that number alone.

- compound: "CCOC(=O)N1CCC(=C2c3ccc(Cl)cc3CCc3cc(C)cnc32)CC1"
  experimental_system: "farnesyl protein transferase (FPT) (Rattus norvegicus, UniProt Q02293+Q04631)"
  pIC50: 5.15

Give its pIC50 value. Item: CCCCCCOC(=O)N1CCC(=C2c3ccc(Cl)cc3CCc3cccnc32)CC1
4.10

Give its pIC50 value. Item: CCSC(=O)N1CCC(=C2c3ccc(Cl)cc3CCc3cccnc32)CC1
5.80

Give its pIC50 value. Item: CCOC(=O)N1CCN([C@H]2c3ccc(Cl)cc3CCc3cccnc32)CC1
4.98

Give its pIC50 value. Item: CN1CCCC(OC(=O)N2CCN(C3c4ccc(Cl)cc4CCc4cccnc43)CC2)C1 (centres unmarked)
5.68

Give its pIC50 value. Item: CCOC(=O)N1CCC(=C2c3ccc(Cl)cc3CCc3c(On4nnc5ccccc54)ccnc32)CC1
4.94

Give its pIC50 value. Item: CCOC(=O)N1CCC(=C2c3ccc(Cl)cc3CCc3ccc[n+]([O-])c32)CC1
4.42

###

Biological target: farnesyl protein transferase (FPT) (Rattus norvegicus, UniProt Q02293+Q04631)
Construct: were partially purified from rat brain by ammonium sulfate fractionation followed by Q-Sepharose; from tissue; host or cells: rat brain
Experiment: In vitro enzyme assay: inhibition of farnesyl protein transferase
Format: biochemical
Details: Ras-CVLS farnesylation, partially purified rat brain FPT; read-out: FPT IC50
value_kind: IC50 (µM)
Kindly answer with a numeric value in µM, unit omitted.

- molecule: "CCOC(=O)N1CCC(C2c3cc(CC)c(Cl)cc3C=Cc3cccnc32)CC1 (stereo not shown)"
  IC50, µM: 10.5
- molecule: "COC(=O)N1CCC(=C2c3ccc(Cl)cc3CCc3cccnc32)CC1"
  IC50, µM: 17.6
- molecule: "O=C(Oc1cccnc1)N1CCC(=C2c3ccc(Cl)cc3CCc3c(Cl)ccnc32)CC1"
  IC50, µM: 1.03

Give its IC50 value. Item: CCOC(=O)N1CCC(F)(C2c3ccc(Cl)cc3CCc3cccnc32)CC1 (stereo not shown)
10.4

Give its IC50 value. Item: O=C(Oc1ccc[n+]([O-])c1)N1CCN(C2c3ccc(Cl)cc3CCc3cccnc32)CC1 (stereo not shown)
3.7

Give its IC50 value. Item: CCOC(=O)N1CCN(C2c3ccc(Cl)cc3CCc3cccnc32)CC1 (stereo not shown)
7.2

Give its IC50 value. Item: CC(C)COC(=O)N1CCC(=C2c3ccc(Cl)cc3CCc3cccnc32)CC1
4.4

###

Quick reference: pIC50 of the listed items.
Molecular target: farnesyl protein transferase (FPT) (Rattus norvegicus, UniProt Q02293+Q04631)
Construct: were partially purified from rat brain by ammonium sulfate fractionation followed by Q-Sepharose; from tissue; host or cells: rat brain
Experiment: In vitro enzyme assay: inhibition of farnesyl protein transferase
Type: biochemical
Conditions: Ras-CVLS farnesylation, partially purified rat brain FPT; read-out: FPT IC50
Just so you know, pIC50 here is -log10 of the concentration in molar units; reply with that number alone.

- compound: "CCOC(=O)N1CCC(C2c3ccc(Cl)cc3C=Cc3c(Cl)ccnc32)CC1 (centres unmarked)"
  pIC50: 5.13
- compound: "O=C(Oc1ccccc1)N1CCC(=C2c3ccc(Cl)cc3CCc3cccnc32)CC1"
  pIC50: 6.08
- compound: "CCOC(=O)N1CCC(=C2c3ccc(Cl)cc3CCc3cc(Br)cnc32)CC1"
  pIC50: 5.66
- compound: "CCOC(=O)N1CCC(=C2c3cc(Cl)c(Cl)cc3CCc3cccnc32)CC1"
  pIC50: 4.42
- compound: "CCOC(=O)N1CCC(C2c3ccc(Cl)cc3CCc3cccnc32)CC1 (centres unmarked)"
  pIC50: 5.91
- compound: "CCOC(=O)N1CCC(=C2c3ccc(Cl)cc3CCc3c(Cl)ccnc32)CC1"
  pIC50: 4.98

Then this compound:
Give its pIC50 value. Item: CCOC(=O)N1CCC(=C2c3ccc(Cl)cc3C=Cc3cccnc32)CC1
4.97

###

Molecular target: farnesyl protein transferase (FPT) (Rattus norvegicus, UniProt Q02293+Q04631)
Construct: were partially purified from rat brain by ammonium sulfate fractionation followed by Q-Sepharose; from tissue; host or cells: rat brain
Assay: In vitro enzyme assay: inhibition of farnesyl protein transferase
Type: biochemical
Details: Ras-CVLS farnesylation, partially purified rat brain FPT; read-out: FPT IC50
Quick reference: pIC50 of the listed items.
Just so you know, pIC50 here is -log10 of the concentration in molar units; reply with that number alone.

Reference set (2 entries):
- compound: "CN1CCC(OC(=O)N2CCN(C3c4ccc(Cl)cc4CCc4cc(Br)cnc43)CC2)CC1 (centres unmarked)"
  pIC50: 6.51
- compound: "CN1CCCC(OC(=O)N2CCN(C3c4ccc(Cl)cc4CCc4cc(Br)cnc43)CC2)C1 (centres unmarked)"
  pIC50: 6.52

Test system farnesyl protein transferase (FPT) (Rattus norvegicus, UniProt Q02293+Q04631); read-out pIC50; what value for O=C(Oc1cccnc1)N1CCC(=C2c3ccc(Cl)cc3CCc3c(O)ccnc32)CC1 ?
5.17

Test system farnesyl protein transferase (FPT) (Rattus norvegicus, UniProt Q02293+Q04631); read-out pIC50; what value for CCOC(=O)N1CCN([C@@H]2c3ccc(Cl)cc3CCc3cccnc32)CC1 ?
4.47

Test system farnesyl protein transferase (FPT) (Rattus norvegicus, UniProt Q02293+Q04631); read-out pIC50; what value for O=C(OCc1ccccc1)N1CCC(=C2c3ccc(Cl)cc3CCc3cccnc32)CC1 ?
5.10

Test system farnesyl protein transferase (FPT) (Rattus norvegicus, UniProt Q02293+Q04631); read-out pIC50; what value for O=C(Oc1cccnc1)N1CCC(=C2c3ccc(Cl)cc3C=Cc3cccnc32)CC1 ?
5.84

Test system farnesyl protein transferase (FPT) (Rattus norvegicus, UniProt Q02293+Q04631); read-out pIC50; what value for CCOC(=O)N1CCC(=C2c3ccc(Br)cc3CCc3cccnc32)CC1 ?
5.15

Test system farnesyl protein transferase (FPT) (Rattus norvegicus, UniProt Q02293+Q04631); read-out pIC50; what value for CCOC(=O)N1CCC(=C2c3ccc(Cl)cc3CCc3cc(OC)cnc32)CC1 ?
4.94

###

Biological target: geranylgeranyl protein transferase (GGPT) I (Rattus norvegicus, UniProt P53610+Q04631)
Construct: were partially purified from rat brain by ammonium sulfate fractionation followed by Q-Sepharose
Experiment: In vitro enzyme assay: inhibition of geranylgeranyl protein transferase I
Conditions: Ras-CVLL as acceptor; read-out: GGPT IC 50
pIC50: −log10 of the molar value.
value_kind: pIC50

Test system geranylgeranyl protein transferase (GGPT) I (Rattus norvegicus, UniProt P53610+Q04631); read-out pIC50; what value for CCOC(=O)N1CCC(C2c3ccc(Cl)cc3CCc3cccnc32)CC1 (stereo not shown) ?
< 4.30

###

System: Ras-CVLS processing in COS monkey kidney cells
Experiment: Cell-based assay: Ras-CVLS processing in transfected COS cells (immunoblot)
Settings: Primates; inhibition of Ras-CVLS processing in Ras-transfected COS cells
Text: 2. Cell-Based Assay: Transient expression of val^12-Ha-Ras-CVLS and val^12-Ha-Ras-CVLL in COS monkey kidney cells: Effect of farnesyl protein transferase inhibitors on Ras processing and on disordered cell growth induced by transforming Ras. […]
value_kind: pIC50
Just so you know, pIC50 here is -log10 of the concentration in molar units; reply with that number alone.

- compound: "CC(C)COC(=O)N1CCC(=C2c3ccc(Cl)cc3CCc3cccnc32)CC1"
  experimental_system: "Ras-CVLS processing in COS monkey kidney cells"
  pIC50: 5.00

Give its pIC50 value. Item: CCOC(=O)N1CCC(C2(F)c3ccc(Cl)cc3CCc3cccnc32)CC1 (centres unmarked)
4.81

Give its pIC50 value. Item: O=C(Sc1ccccc1)N1CCC(=C2c3ccc(Cl)cc3CCc3cccnc32)CC1
5.29

Give its pIC50 value. Item: O=C(Oc1cccnc1)N1CCN([C@@H]2c3ccc(Cl)cc3CCc3cccnc32)CC1
5.16
